# Assay method text: Stimulation effect on antibody producing cells (plaque numbers, Cunningham technique)
# Type: in vivo, ICR mouse
# Measurement parameters: plaque number relative to control (saline) = 1
Experimental readout: Stimulation index
Answers are plain numbers.

CCCCCCCCCCCCCC(=O)O[C@H](CCCCCCCCCCC)CC(=O)OC[C@H]1O[C@@H](S)[C@H](NC(C)=O)[C@@H](O[C@H](C)C(=O)N[C@@H](C)C(=O)N[C@H](CCC(=O)OC)C(N)=O)[C@@H]1O [Example 8]    1.8
CCCCCCCCCCCCCCCC(=O)O[C@H](CCCCCCCCCCC)CC(=O)OC[C@H]1OC[C@H](NC(C)=O)[C@@H](O[C@H](C)C(=O)N[C@@H](C)C(=O)N[C@H](CCC(=O)OC)C(N)=O)[C@@H]1O [Example 6]    1.4
CCCCCCCCCCCC(=O)O[C@H](CCCCCCCCCCC)CC(=O)OC[C@H]1OC[C@H](NC(C)=O)[C@@H](O[C@H](C)C(=O)N[C@@H](C)C(=O)N[C@H](CCC(=O)OC)C(N)=O)[C@@H]1O [Example 4]    1.4

// query Please give the measured Stimulation index for this molecule: CCCCCCCCCCCC(=O)O[C@H](CCCCCCCCCCC)CC(=O)OC[C@H]1O[C@@H](S)[C@H](NC(C)=O)[C@@H](O[C@H](C)C(=O)N[C@@H](C)C(=O)N[C@H](CCC(=O)OC)C(N)=O)[C@@H]1O [Example 7]
// result 2.3

----------
# Tested on: influenza HA vaccine (A/Bangkok/10/83 strain, H1N1)
# Assay method text: Enhancing effect on influenza HA vaccine (adjuvant activity), ELISA
# Format: in vivo
# Measurement parameters: CDF1 mouse; compound (100 μg/ml) mixed with influenza HA vaccine (100 CCA/ml); primary response serum
Experimental readout: Anti-influenza HA virus ELISA unit, Primary response serum

CCCCCCCCCCCCCCCC(=O)O[C@H](CCCCCCCCCCC)CC(=O)OC[C@H]1O[C@@H](S)[C@H](NC(C)=O)[C@@H](O[C@H](C)C(=O)N[C@@H](C)C(=O)N[C@H](CCC(=O)OC)C(N)=O)[C@@H]1O    1,900 ELISA unit

Continue with the next compound.
// query // lookup Anti-influenza HA virus ELISA unit, Primary response serum | system=influenza HA vaccine (A/Bangkok/10/83 strain, H1N1) | key= `CCCCCCCCCCCCCC(=O)O[C@H](CCCCCCCCCCC)CC(=O)OC[C@H]1OC[C@H](NC(C)=O)[C@@H](O[C@H](C)C(=O)N[C@@H](C)C(=O)N[C@H](CCC(=O)OC)C(N)=O)[C@@H]1O`
// result 1,800 ELISA unit

----------
# Assay method text: Stimulation effect on antibody producing cells (plaque numbers, Cunningham technique)
# Assay type: in vivo, ICR mouse
# Measurement parameters: plaque number relative to control (saline) = 1
Experimental readout: Stimulation index
Answers are plain numbers.

CCCCCCCCCCCC(=O)O[C@H](CCCCCCCCCCC)CC(=O)OC[C@H]1OC(O)[C@H](NC(C)=O)[C@@H](O[C@H](C)C(=O)N[C@@H](C)C(=O)N[C@H](CCC(=O)OC)C(N)=O)[C@@H]1O (some centres unmarked)    2.2

// query Value lookup for Stimulation index; key = `CCCCCCCCCCCCCCCC(=O)O[C@H](CCCCCCCCCCC)CC(=O)OC[C@H]1O[C@@H](S)[C@H](NC(C)=O)[C@@H](O[C@H](C)C(=O)N[C@@H](C)C(=O)N[C@H](CCC(=O)OC)C(N)=O)[C@@H]1O`
// result 2.3

----------
# System: Psud. aeruginosa (NCTC 10490)
# Assay method text: Phylactic effect, Psud. aeruginosa infection
# Format: in vivo
# Measurement parameters: ICR mouse; compound 500 μg/ml, 0.2 ml i.p. one day before infection i.p. 1×10^7 /mouse; after 7 days of infection
# Method: A solution of a compound of the invention in physiological saline (500 μg/ml), 0.2 ml was intraperitoneally injected into ICR mouse (20 mice per group). After a day, E. coli (JC-2) and Psud. aeruginosa (NCTC 10490) were incubated through intraperitoneal route so as to be at concentration of 1×10^7 /mouse. Survival rate after 7 days of infection was measured.
Experimental readout: Survival rate, Psud. aeruginosa
Answer shape: numeric part, then the unit.

# example entries with known answers
CCCCCCCCCCCCCC(=O)O[C@H](CCCCCCCCCCC)CC(=O)OC[C@H]1O[C@@H](S)[C@H](NC(C)=O)[C@@H](O[C@H](C)C(=O)N[C@@H](C)C(=O)N[C@H](CCC(=O)OC)C(N)=O)[C@@H]1O [Example 8]    20%
CCCCCCCCCCCCCCCC(=O)O[C@H](CCCCCCCCCCC)CC(=O)OC[C@H]1OC[C@H](NC(C)=O)[C@@H](O[C@H](C)C(=O)N[C@@H](C)C(=O)N[C@H](CCC(=O)OC)C(N)=O)[C@@H]1O [Example 6]    50%
CCCCCCCCCCCC(=O)O[C@H](CCCCCCCCCCC)CC(=O)OC[C@H]1OC[C@H](NC(C)=O)[C@@H](O[C@H](C)C(=O)N[C@@H](C)C(=O)N[C@H](CCC(=O)OC)C(N)=O)[C@@H]1O [Example 4]    50%
CCCCCCCCCCCC(=O)O[C@H](CCCCCCCCCCC)CC(=O)OC[C@H]1OC(O)[C@H](NC(C)=O)[C@@H](O[C@H](C)C(=O)N[C@@H](C)C(=O)N[C@H](CCC(=O)OC)C(N)=O)[C@@H]1O (stereo partly drawn) [Example 1]    45%
CCCCCCCCCCCCCC(=O)O[C@H](CCCCCCCCCCC)CC(=O)OC[C@H]1OC(O)[C@H](NC(C)=O)[C@@H](O[C@H](C)C(=O)N[C@@H](C)C(=O)N[C@H](CCC(=O)OC)C(N)=O)[C@@H]1O (stereo partly drawn) [Example 2]    45%

Need Survival rate, Psud. aeruginosa for each of these molecules.
1. CCCCCCCCCCCC(=O)O[C@H](CCCCCCCCCCC)CC(=O)OC[C@H]1O[C@@H](S)[C@H](NC(C)=O)[C@@H](O[C@H](C)C(=O)N[C@@H](C)C(=O)N[C@H](CCC(=O)OC)C(N)=O)[C@@H]1O [Example 7]
2. CCCCCCCCCCCCCCCC(=O)O[C@H](CCCCCCCCCCC)CC(=O)OC[C@H]1OC(O)[C@H](NC(C)=O)[C@@H](O[C@H](C)C(=O)N[C@@H](C)C(=O)N[C@H](CCC(=O)OC)C(N)=O)[C@@H]1O (stereo partly drawn) [Example 3]
3. CCCCCCCCCCCCCC(=O)O[C@H](CCCCCCCCCCC)CC(=O)OC[C@H]1OC[C@H](NC(C)=O)[C@@H](O[C@H](C)C(=O)N[C@@H](C)C(=O)N[C@H](CCC(=O)OC)C(N)=O)[C@@H]1O [Example 5]
4. CCCCCCCCCCCCCCCC(=O)O[C@H](CCCCCCCCCCC)CC(=O)OC[C@H]1O[C@@H](S)[C@H](NC(C)=O)[C@@H](O[C@H](C)C(=O)N[C@@H](C)C(=O)N[C@H](CCC(=O)OC)C(N)=O)[C@@H]1O [Example 9]

// result
20%
40%
55%
15%

----------
# Tested on: influenza HA vaccine (A/Bangkok/10/83 strain, H1N1)
# Assay method text: Enhancing effect on influenza HA vaccine (adjuvant activity), ELISA
# Type: in vivo
# Measurement parameters: CDF1 mouse; compound (100 μg/ml) mixed with influenza HA vaccine (100 CCA/ml); primary response serum
Experimental readout: Anti-influenza HA virus ELISA unit, Primary response serum

Known Anti-influenza HA virus ELISA unit, Primary response serum results, listed for orientation:
CCCCCCCCCCCCCCCC(=O)O[C@H](CCCCCCCCCCC)CC(=O)OC[C@H]1OC(O)[C@H](NC(C)=O)[C@@H](O[C@H](C)C(=O)N[C@@H](C)C(=O)N[C@H](CCC(=O)OC)C(N)=O)[C@@H]1O (stereo partly shown) [Example 3]    5,200 ELISA unit
CCCCCCCCCCCCCCCC(=O)O[C@H](CCCCCCCCCCC)CC(=O)OC[C@H]1OC[C@H](NC(C)=O)[C@@H](O[C@H](C)C(=O)N[C@@H](C)C(=O)N[C@H](CCC(=O)OC)C(N)=O)[C@@H]1O [Example 6]    2,500 ELISA unit
CCCCCCCCCCCCCC(=O)O[C@H](CCCCCCCCCCC)CC(=O)OC[C@H]1O[C@@H](S)[C@H](NC(C)=O)[C@@H](O[C@H](C)C(=O)N[C@@H](C)C(=O)N[C@H](CCC(=O)OC)C(N)=O)[C@@H]1O [Example 8]    2,100 ELISA unit

We next turn to a different molecule, shown below.
// query Look up Anti-influenza HA virus ELISA unit, Primary response serum: CCCCCCCCCCCC(=O)O[C@H](CCCCCCCCCCC)CC(=O)OC[C@H]1OC[C@H](NC(C)=O)[C@@H](O[C@H](C)C(=O)N[C@@H](C)C(=O)N[C@H](CCC(=O)OC)C(N)=O)[C@@H]1O [Example 4]
// result 2,300 ELISA unit
